- tgt: human CXCR2 (Homo sapiens)
- Sequence (P25025 whole entry): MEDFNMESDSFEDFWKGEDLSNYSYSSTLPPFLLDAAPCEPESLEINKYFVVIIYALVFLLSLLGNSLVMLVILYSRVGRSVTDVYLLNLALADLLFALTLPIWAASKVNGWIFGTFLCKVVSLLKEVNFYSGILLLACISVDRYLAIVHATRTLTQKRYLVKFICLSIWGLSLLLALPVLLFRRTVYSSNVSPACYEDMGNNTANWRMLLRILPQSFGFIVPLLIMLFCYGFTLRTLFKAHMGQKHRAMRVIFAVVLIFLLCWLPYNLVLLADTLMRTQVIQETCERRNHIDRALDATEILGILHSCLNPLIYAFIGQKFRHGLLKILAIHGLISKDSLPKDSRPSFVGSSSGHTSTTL
- testMethodNotes: CXCR2 inhibition: calcium fluorescence assay (FLIPR)
- assayContext: CHO-K1 cells stably transfected with human CXCR2 and Gα16; Fluo-4; % inhibition of calcium response to chemokine (10-100 nM)
- Text: Determination of CXCR2 Inhibition: Calcium Fluorescence Assay (FLIPR) The assay is based on the detection of intracellular calcium changes detected by the selective, calcium-chelating dye, Fluo-4 (Molecular Probes). A large fluorescence intensity increase is observed upon calcium association with Fluo-4. […]
metric: log10 IC50 (log10 of the value in µM)

{"columns": ["molecule", "tgt", "log10 IC50"],
 "data": [
  ["CC(NC(=O)c1ccc2ccccc2c1OCc1ccc(C(F)(F)F)cc1)C(=O)O (centres unmarked)", "human CXCR2 (Homo sapiens)", -0.15],
  ["CCC(C)(NC(=O)c1ccc2ccccc2c1OCc1cc2ccccc2s1)C(=O)O (centres unmarked)", "human CXCR2 (Homo sapiens)", -0.01],
  ["O=C(NC1(C(=O)O)CCCC1)c1ccc2ccccc2c1OCc1ccc(C(F)(F)F)cc1", "human CXCR2 (Homo sapiens)", 0.00],
  ["CC(C)(NC(=O)c1ccc2ccccc2c1OCc1ccc2nonc2c1)C(=O)O", "human CXCR2 (Homo sapiens)", 0.51],
  ["CC(C)C(C)(NC(=O)c1sc2ccccc2c1OCc1ccc(C(F)(F)F)cc1)C(=O)O (centres unmarked)", "human CXCR2 (Homo sapiens)", -0.70],
  ["CCC(C)(NC(=O)c1ccc2ccccc2c1OCc1ccc(OC(F)(F)F)c(Cl)c1)C(=O)O (centres unmarked)", "human CXCR2 (Homo sapiens)", 0.21],
  ["CC(C)(NC(=O)c1cc(Br)c2ccccc2c1OCc1ccc(OC(F)(F)F)cc1)C(=O)O", "human CXCR2 (Homo sapiens)", -0.01],
  ["CC(C)(NC(=O)c1sc2ccccc2c1OCc1ccc(C(F)(F)F)nc1)C(=O)O", "human CXCR2 (Homo sapiens)", 0.65]
]}
